# system: human AT1 receptor (Homo sapiens (Human), UniProt P30556)
# Sequence (P30556 whole entry): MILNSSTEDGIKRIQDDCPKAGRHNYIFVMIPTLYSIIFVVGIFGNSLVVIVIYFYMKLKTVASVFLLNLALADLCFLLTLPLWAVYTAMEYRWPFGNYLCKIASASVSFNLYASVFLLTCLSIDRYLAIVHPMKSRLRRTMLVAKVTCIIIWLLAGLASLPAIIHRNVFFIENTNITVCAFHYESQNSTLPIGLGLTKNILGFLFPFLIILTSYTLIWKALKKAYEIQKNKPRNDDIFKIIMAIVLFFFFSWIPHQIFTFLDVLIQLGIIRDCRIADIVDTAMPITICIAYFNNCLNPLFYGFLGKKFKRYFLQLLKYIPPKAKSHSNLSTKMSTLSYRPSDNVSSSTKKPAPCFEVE
# assay method text: AT1 receptor antagonistic activity: [125I]-angiotensin II binding assay with AT1 membrane
# condition label: 22.5 pM [125I]-angiotensin II, human AT1 receptor-expressing CHO-K1 membrane, 1 hr room temperature
value kind: IC50 (nM)
Only the number, expressed in nM, is required.

# count of solved cases: 3
CCCc1c(Cc2ccc(-c3ccccc3-c3noc(=O)[nH]3)cc2F)c(=O)n([C@H]2CC[C@H](OC(C)C(C)(C)O)CC2)c2ncnn12 (single isomer, unassigned) [Example 248]
2.2
CCCc1c(Cc2ccc(-c3ccccc3-c3noc(=O)[nH]3)cc2)c(=O)n([C@H]2CC[C@H](OCC(C)(C)O)CC2)c2ccnn12 [Example 413]
1.6
CCCc1c(Cc2ccc(-c3ccccc3-c3nc(=O)o[nH]3)cc2)c(=O)n(C2CCC(OCC(C)O)CC2)c2ccnn12 (single isomer, unassigned) [Example 440]
1.8

Read the next record carefully.
Quick check: IC50 of CCCc1c(Cc2ccc(-c3ccccc3-c3noc(=O)[nH]3)cc2)c(=O)n(C2CCC(OCC(C)O)CC2)c2ccnn12 (single isomer, unassigned) [Example 441] ?
1.6
